Data origin, for the record: paper PMC11480844

B1: H2-Kb / B3 (parent)
chain 1: GQQVKQSSPSLTVQEGGISILNCDYENDMFDYFAWYKKYPDNSPTLLISVRSNVDKREDGRLTVFLNKSGKHFSLHITASQPEDTAVYLCAAGNTGYQNFYFGKGTSLTVIP
chain 2: DSGVVQSPRHIIKEKGGRSVLTCIPISGHSNVVWYQQTLGKELKFLIQHYEKVERDKGFLPSRFSVQQFDDYHSEMNMSALELEDSAMYFCASSSLQGARNQAPLFGEGTRLSVL
chain 3: not shown
chain 4: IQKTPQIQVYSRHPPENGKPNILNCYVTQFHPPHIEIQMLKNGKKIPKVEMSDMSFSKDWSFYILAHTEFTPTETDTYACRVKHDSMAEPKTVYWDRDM
chain 5: SIINFEKL

Variants of: B1
Experiment: % of reporter cells activated (NFAT-GFP), raw; also: test concentration or dose not given here
Settings: with B3; scale: % of reporter cells activated
Ranges used to classify ratio to parent: bottom: < 0.3; middle: ≥ 0.3 and < 0.6; top: ≥ 0.6

Quick check: band for chain 5 L8E middle

Request: chain 5 N4Y bottom

Request: chain 5 I3F bottom

Request: chain 5 I2H middle

Request: chain 5 K7Q bottom

Request: chain 5 F5P bottom

Request: chain 5 K7T bottom

Request: chain 5 I2T top

Request: chain 5 I3L top

Request: chain 5 E6H top

Request: chain 5 L8N top

Request: chain 5 I2K middle

Request: chain 5 I3C top

Request: chain 5 L8A bottom

Request: chain 5 I3W bottom

Request: chain 5 N4R bottom

Request: chain 5 S1T bottom

Request: chain 5 S1G bottom

Request: chain 5 I3H top

Request: chain 5 S1R bottom

Request: chain 5 E6G top

Request: chain 5 E6R middle

Request: chain 5 K7S bottom

Request: chain 5 N4M bottom

Request: chain 5 S1K middle

Request: chain 5 F5S bottom

Request: chain 5 K7R bottom

Request: chain 5 I3S top

Request: chain 5 L8P middle

Request: chain 5 N4C bottom

Request: chain 5 F5W middle

Request: chain 5 L8G bottom

Request: chain 5 L8F middle

Request: chain 5 E6F top

Request: chain 5 E6A top

Request: chain 5 L8K middle

Request: chain 5 I3E top

Request: chain 5 E6D top

Request: chain 5 N4L bottom

Request: chain 5 I2Q bottom
